MEASUREMENT_TARGET: NRAS WT (Homo sapiens (Human), UniProt P01111+P62937)
Sequence (P01111 whole entry): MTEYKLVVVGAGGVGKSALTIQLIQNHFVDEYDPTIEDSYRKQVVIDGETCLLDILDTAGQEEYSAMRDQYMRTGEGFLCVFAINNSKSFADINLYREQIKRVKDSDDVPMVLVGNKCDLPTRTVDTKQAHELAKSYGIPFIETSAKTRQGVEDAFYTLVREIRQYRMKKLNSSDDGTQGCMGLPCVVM
Sequence (P62937 whole entry): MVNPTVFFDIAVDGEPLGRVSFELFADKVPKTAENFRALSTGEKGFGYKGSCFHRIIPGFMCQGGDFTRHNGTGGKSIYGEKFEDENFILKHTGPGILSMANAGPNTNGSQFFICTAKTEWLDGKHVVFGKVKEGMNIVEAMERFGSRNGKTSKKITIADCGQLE
PROTOCOL_TEXT: Ras-Raf disruption/FRET/MOA assay (BRAF RBD, Cyclophilin A)
Type: biochemical
pIC50: −log10 of the molar value.
MEASURED_QUANTITY: pIC50

Hi there! I need pIC50 for each item below, if you can.
1. CCn1c(-c2cccnc2[C@H](C)OC)c2c3cc(ccc31)-c1csc(n1)C[C@H](NC(=O)[C@H](C(C)C)N(C)C(=O)N1CC[C@@]3(CCNC3=O)C1)C(=O)N1CCC[C@H](N1)C(=O)OCC(C)(C)C2 [Compound A480]
2. CCn1c(-c2cccnc2[C@H](C)OC)c2c3cc(ccc31)-c1csc(n1)C[C@H](NC(=O)[C@H](C(C)C)N(C)C(=O)N1C[C@H]3CCN(C)[C@H]3C1)C(=O)N1CCC[C@H](N1)C(=O)OCC(C)(C)C2 [Compound A568]
3. CCn1c(-c2cccnc2[C@H](C)OC)c2c3cc(ccc31)-c1csc(n1)C[C@H](NC(=O)[C@H](C(C)C)N(C)C(=O)N1CCN3C(=O)CN(C)C[C@@H]3C1)C(=O)N1CCC[C@H](N1)C(=O)OCC(C)(C)C2 [Compound A536]
4. CCn1c(-c2cccnc2[C@H](C)OC)c2c3cc(ccc31)-c1csc(n1)C[C@H](NC(=O)[C@H](C(C)C)N(C)C(=O)N1CC3(CCCN(C)C3=O)C1)C(=O)N1CCC[C@H](N1)C(=O)OCC(C)(C)C2 [Compound A453]

Reply:
6.00 to 7.00
6.00 to 7.00
7.00 to 8.00
5.00 to 6.00
